Cited source: ChEMBL document CHEMBL4007481

System: Mycolicibacterium smegmatis
procedure summary: Inhibition of FtsZ in Mycobacterium smegmatis ATCC 607 assessed as ratio of diameter of zone inhibition of test compound to diameter of zone inhibition of streptomycin at 100 ug per disc after 18 to 24 hrs by paper disc agar diffusion assay
reported property: Ratio
The reply should be a number, written without any unit.

Examples with their reported Ratio follow.
smiles_record=Cc1ccc(OC(=O)COc2ccc(F)c(C(N)=O)c2F)cc1 endpoint_result=0.07
smiles_record=COc1ccc(OCCOC(=O)COc2ccc(F)c(C(N)=O)c2F)cc1 endpoint_result=0.37
smiles_record=NC(=O)c1c(F)ccc(OCCCOc2c(Cl)cc(Cl)c3cccnc23)c1F endpoint_result=0.2

Short answer for `NC(=O)c1c(F)ccc(OCC(=O)OCCOc2ccc(F)cc2)c1F` : Ratio was 0.62

Short answer for `NC(=O)c1c(F)ccc(OCC(=O)Oc2ccccc2)c1F` : Ratio was 0.5

Short answer for `NC(=O)c1c(F)ccc(OCC(=O)OCCOc2ccccc2)c1F` : Ratio was 0.36

Short answer for `COc1ccc(OC(=O)COc2ccc(F)c(C(N)=O)c2F)cc1` : Ratio was 0.19
